SUBJECT_OF_TEST: Human immunodeficiency virus type 1 protease (Human immunodeficiency virus 1, UniProt Q72874)
ASSAY: Binding affinity against HIV-1 protease
MEASURE: pKi
Please keep in mind that pKi is minus log10 of the molar concentration; only the number is needed.

CC(C)(C)OC(=O)N[C@@H](Cc1ccccc1)[C@@H](O)[C@@H](NCc1ccc(CNC(=O)Nc2ccccc2)cc1)C(=O)N[C@@H]1c2ccccc2C[C@H]1O :: 7.48
CC(C)(C)OC(=O)N[C@@H](Cc1ccccc1)[C@@H](O)[C@@H](NCc1ccc(OCCO)cc1)C(=O)N[C@@H]1c2ccccc2C[C@H]1O :: 7.10

*Q* For the compound shown here, `COc1ccc(CN[C@@H](C(=O)N[C@@H]2c3ccccc3C[C@H]2O)[C@H](O)[C@H](Cc2ccccc2)NC(=O)[C@@H](NC(=O)OC(C)(C)C)C(C)(C)C)cc1` , give the reported pKi.
*A* 6.68

*Q* For the compound shown here, `CC(C)(C)[C@H](NC(=O)OCc1ccccc1)C(=O)N[C@@H](Cc1ccccc1)[C@@H](O)[C@@H](NCc1ccc(CNC(=O)Nc2ccccc2)cc1)C(=O)N[C@H]1c2ccccc2C[C@H]1O` , give the reported pKi.
*A* 8.48

*Q* For the compound shown here, COc1ccc(CN[C@@H](C(=O)NC2c3ccccc3C[C@H]2O)[C@H](O)[C@H](Cc2ccccc2)NC(=O)[C@@H](NC(=O)CCc2ccc(OC)c(O)c2)C(C)(C)C)cc1 (stereo partly specified) , give the reported pKi.
*A* 8.11

*Q* For the compound shown here, `CC(C)(C)OC(=O)N[C@@H](Cc1ccccc1)[C@@H](O)[C@@H](NCc1ccc(OCCN2CCOCC2)cc1)C(=O)N[C@@H]1c2ccccc2C[C@H]1O` , give the reported pKi.
*A* 6.89

* * *

ASSAY: Oral Bioavailability was measured as Maximal observed concentration (Cmax) value at dose 125 mg/kg
Assay type: ADME, organism-based
Design: dose 125 mg/kg, route oral
RECORDED_CONDITIONS: in vivo
MEASURE: Cmax (nM)
A number alone suffices; assume nM.

COc1ccc(CN[C@@H](C(=O)N[C@H]2c3ccccc3CC2O)[C@H](O)[C@H](Cc2ccccc2)NC(=O)[C@@H](NC(=O)OCc2ccccc2)C(C)C)cc1 (some centres undefined) :: 12300
CC(C)(C)OC(=O)N[C@@H](Cc1ccccc1)[C@@H](O)[C@@H](NCc1ccccc1)C(=O)NCc1ccccc1 :: 400
COc1ccc(CN[C@@H](C(=O)N[C@H](C(=O)NCc2nc3ccccc3[nH]2)C(C)C)[C@H](O)[C@H](Cc2ccccc2)NC(=O)[C@@H](NC(=O)OCc2ccccc2)C(C)(C)C)cc1 :: 200

Consider the additional compound presented here.
*Q* For the compound shown here, COc1ccc(CN[C@@H](C(=O)NC2c3ccccc3C[C@H]2O)[C@H](O)[C@H](Cc2ccccc2)NC(=O)[C@@H](NC(=O)CSc2nnn(C)n2)C(C)(C)C)cc1 (some centres undefined) , give the reported Cmax.
*A* 2800

* * *

ASSAY: Solubility (phosphate-buffered saline, pH =7.4)
Format: physicochemical
RECORDED_CONDITIONS: read-out: S
Here, each record is paired with measured solubility data.
A number alone suffices; assume µM.

COc1ccc(CN[C@@H](C(=O)NC2c3ccccc3C[C@H]2O)[C@H](O)[C@H](Cc2ccccc2)NC(=O)[C@@H](NC(=O)CSc2nnn(C)n2)C(C)(C)C)cc1 (some centres not stated) :: 78
COc1ccc(CN[C@@H](C(=O)NC2c3ccccc3C[C@H]2O)[C@H](O)[C@H](Cc2ccccc2)NC(=O)[C@@H](NC(=O)CSc2nnc(C)s2)C(C)(C)C)cc1 (some centres not stated) :: 39
COc1ccc(CN[C@@H](C(=O)N[C@H]2c3ccccc3C[C@H]2O)[C@H](O)[C@H](Cc2ccccc2)NC(=O)[C@@H](NC(=O)CCc2nc3ccccc3[nH]2)C(C)(C)C)cc1 :: 12.2

Consider the additional molecule presented here.
*Q* For the molecule shown here, `CC(=O)NCc1ccc(CN[C@@H](C(=O)N[C@H]2c3ccccc3C[C@H]2O)[C@H](O)[C@H](Cc2ccccc2)NC(=O)[C@@H](NC(=O)OCc2ccccc2)C(C)(C)C)cc1` , give the reported solubility.
*A* 25.3

* * *

Here, each record is paired with measured solubility data.
ASSAY: Solubility (phosphate-buffered saline, pH =7.4)
Assay type: physicochemical
RECORDED_CONDITIONS: read-out: S

# example entries with known answers
CC(C)(C)[C@H](NC(=O)OCc1ccccc1)C(=O)N[C@@H](Cc1ccccc1)[C@@H](O)[C@@H](NCc1ccc(CNC(=O)CCc2nc3ccccc3[nH]2)cc1)C(=O)N[C@@H]1c2ccccc2C[C@H]1O :: < 1 µM
CC(C)(C)OC(=O)N[C@@H](Cc1ccccc1)[C@@H](O)[C@@H](NCc1ccccc1)C(=O)NCc1ccccc1 :: < 1 µM

Consider the additional compound presented here.
*Q* For the compound shown here, `CCOc1ccc(CN[C@@H](C(=O)N[C@H]2c3ccccc3C[C@H]2O)[C@H](O)[C@H](Cc2ccccc2)NC(=O)[C@@H](NC(=O)OCc2ccccc2)C(C)(C)C)cc1` , give the reported solubility.
*A* < 1 µM

Values were extracted from ChEMBL document CHEMBL1129316.
